test_description: Pharmacokinetics and brain distribution after single oral dose, rats
Type: in vivo, male Sprague-Dawley rats
study_conditions: male, Sprague-Dawley, rat, plasma, single PO 10 mg/kg (HCl salt, as free base), 1 h
endpoint: concentration at 1 h (ng/mL)
Report as a plain number; the unit ng/mL is understood.

If you can, please state the reported concentration at 1 h value of `CC(C)N1CCOc2c(F)cc(-c3nc(Nc4ccc(C5CCN(C)CC5)cn4)ncc3F)cc21` .
8.45

---

test_description: Pharmacokinetics and brain distribution after single oral dose, rats
Assay type: in vivo, male Sprague-Dawley rats
study_conditions: male, Sprague-Dawley, rat, plasma, single PO 100 mg/kg (HCl salt, as free base), 1 h
endpoint: concentration at 1 h
Report as: number unit

What value of concentration at 1 h has been reported for the following compound? `CC(C)N1CCOc2c(F)cc(-c3nc(Nc4ccc(C5CCN(C)CC5)cn4)ncc3F)cc21`
81.2 ng/mL
